# method_notes: Solubility assay (μSOL Evolution, UV)
# Format: physicochemical
# test_settings: 18 h at RT in buffer
property_name: Solubility (µM)
Give the value, in units of µM, as a plain number.

// Solubility lookup, key: FC(F)(F)c1ccc2c(NCCCNCc3ccc4[nH]ccc4c3)ccnc2c1 [SJ000521054-02]
26.48

Try this compound next: FC(F)(F)c1cc(-c2ccc3c(NCCCNCc4ccco4)ccnc3c2)cc(C(F)(F)F)c1 [SJ000311270-01]
61.08

Here is the next compound: c1ccc2c(NCCCNCc3ccc4[nH]ccc4c3)ccnc2c1 [SJ001008066-01]
37.77

How about CC(C)(C)c1ccc(-c2ccc3c(NCCCNCc4ccco4)ccnc3c2)cc1 [SJ000311286-01] ?
56.16

----------
# assayed_system: interaction between GST-MAGEA11 MHD and FAM-PCF11_4 peptide (MAGE-A11:PCF11) (Homo sapiens (Human), UniProt P43364)
# Sequence (P43364 218-429): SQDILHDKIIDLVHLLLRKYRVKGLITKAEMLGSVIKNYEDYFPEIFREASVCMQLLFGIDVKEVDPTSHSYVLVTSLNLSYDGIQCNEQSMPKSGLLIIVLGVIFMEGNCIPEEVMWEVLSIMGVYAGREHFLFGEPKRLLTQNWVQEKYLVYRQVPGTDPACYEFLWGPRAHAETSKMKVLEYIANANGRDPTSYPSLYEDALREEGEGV
# method_notes: TR-FRET dose response competition assay for disruption of MAGE-A11:PCF11 binding
# test_settings: Table 6, 4-aminoquinoline compounds; read-out: TR-FRET, IC50
Can you tell me pIC50 for the items I'm about to list?
pIC50 field: float, defined as -log10 of concentration (mol/L).

What measured pIC50 goes with FC(F)(F)c1ccc(-c2ccc3c(NCCCNCc4cccc5c4OCO5)ccnc3c2)cc1 [SJ000311280-01] ?
5.39

Can you handle Brc1ccc2c(NCCCNCc3ccc4[nH]ccc4c3)ccnc2c1 [SJ001008065-01] next?
6.21

Repeat for the following compound: Clc1ccc2c(NCCCNCc3ccc4[nH]ccc4c3)ccnc2c1 [SJ000520909-03]
6.62

----------
# assayed_system: MAGE-A11:PCF11 (Homo sapiens (Human))
# Sequence (P43364 218-429): as above
# method_notes: TR-FRET single point screening at 15 μM
# Format: binding
# Parameters: unit not given here
# test_settings: single point TR-FRET screening at 15 μM against MAGE-A11:PCF11
# Description: TR-FRET Assays and High-throughput Screen. Terbium-anti-GST antibody, 1 M Tris pH 7.5 1 M MgCl2 and 1 M DTT were purchased from Invitrogen (Carlsbad, CA), BSA was purchased from Sigma (St. Louis, MO). Dimethyl sulfoxide (DMSO) was purchased from Fisher Scientific (Pittsburgh, PA). Black 384-well low volume plates and 384-well polypropylene compound plates were purchased from Corning Incorporated (Tewksbury, MA). […]
property_name: TR-FRET signal
Please give only the number in your answer, with no unit.

So what's the measured TR-FRET signal for this one? COc1ccc(N2CCN(c3c(S(=O)(=O)c4ccc(C)cc4)cnc4ccc(Cl)cc34)CC2)cc1 [SJ000117072]
−5.838

Quick one: COc1ccc(N2CCN(c3c(S(=O)(=O)c4ccccc4)cnc4ccc(C)cc34)CC2)cc1 [SJ000083981]
−37.97

Repeat for the following compound: COc1ccc2nc3cc(Cl)ccc3c(NCCCNCc3cc(F)ccc3F)c2c1 [SJ000361091]
−327.2

Try this compound next: Clc1ccc2c(NCCCCN(Cc3ccccc3)Cc3ccc4c(c3)OCO4)ccnc2c1 [SJ000522723]
16.51

Next entry: CCc1nc2ccccc2c(NC(=O)CN2CCCCC2)c1C [SJ000111682]
1.593

----------
# assayed_system: MAGE-A11:PCF11 (Homo sapiens (Human))
# method_notes: TR-FRET single point screening at 15 μM
# Type: binding
# Parameters: unit not given here
# test_settings: single point TR-FRET screening of quinoline compounds against MAGE-A11:PCF11; 15 μM
Friendly reminder: TR-FRET signal below 10 is true, at or above is false.

Lab note: confirm whether the reported TR-FRET signal for this molecule is below 10, equality not counting. molecule: Clc1ccc2c(NCCCN(Cc3ccccc3)Cc3ccsc3)ccnc2c1
true

Could you do the same for CCCN(CCCNc1ccnc2cc(C(F)(F)F)ccc12)Cc1ccc(OC)cc1 , please?
false

Next up: CCCN(CCCNc1c2ccc(Cl)cc2nc2ccc(OC)cc12)Cc1ccc(Cl)c(C(F)(F)F)c1
false

// next record CCCN(CCCNc1ccnc2cc(Cl)ccc12)Cc1[nH]cnc1C
false

Here is the next molecule: CCCN(CCCNc1c2ccc(Cl)cc2nc2ccc(OC)cc12)Cc1ccc(Cl)cc1Cl
true

Here is the next molecule: CCCN(CCCNc1ccnc2cc(Cl)ccc12)CC(CC)CC
false

Thanks! And CCCN(CCCNc1c2ccc(Cl)cc2nc2ccc(OC)cc12)Cc1csc2ccccc12 ?
true

Another: CCCCN(CCC)CCCNc1ccnc2cc(C(F)(F)F)ccc12
false

Query CCCN(CCCNc1ccnc2cc(C(F)(F)F)ccc12)Cc1ccccc1F next
false

----------
For each of the molecules below, state its TR-FRET signal.
# assayed_system: UniProtKB P43364
# method_notes: TR-FRET single point screening at 15 μM
# Assay type: binding
# Set-up: unit not given here
# test_settings: single point TR-FRET screening of quinoline compounds against MAGE-A11:PCF11; 15 μM
No unit in the answer, please; the number alone is enough.

Could you share which TR-FRET signal value was measured for COc1ccc2nc3cc(Cl)ccc3c(NCCCNCc3c4ccccc4cc4ccccc34)c2c1 ?
−3.728

Another: CCCCCCN(CCC)CCCNc1ccnc2cc(C(F)(F)F)ccc12
34.95

And then CCCCCCNCCCNc1ccnc2cc(C(F)(F)F)ccc12 , what is it?
31.61

Subsequent entry: Cn1cccc1CNCCCNc1ccnc2cc(Cl)ccc12
18.96

Queued: CCCN(CCCNc1ccnc2cc(C(F)(F)F)ccc12)Cc1cccnc1Br
5.164

----------
# assayed_system: MAGE-A11:PCF11 (Homo sapiens (Human))
# method_notes: TR-FRET single point screening at 15 μM
# Type: binding
# Set-up: unit not given here
# test_settings: single point TR-FRET screening of quinoline compounds against MAGE-A11:PCF11; 15 μM
I'd be grateful if you could share measured TR-FRET signal for these entries.

Which measured TR-FRET signal value corresponds to CCCN(CCCNc1ccnc2cc(C(F)(F)F)ccc12)Cc1cnn(C)c1 ?
15.68

Can you check CCCN(CCCNc1ccnc2cc(Cl)ccc12)Cc1ccc(C)o1 next?
20.15

Cool, now CCC(C)CNCCCNc1ccnc2cc(Cl)ccc12 (centres unmarked)
9.822

Can you handle CCCN(CCCNc1c2ccc(Cl)cc2nc2ccc(OC)cc12)Cc1c(F)cccc1C(F)(F)F next?
23.09

Another: CCCN(CCCNc1ccnc2cc(Cl)ccc12)Cc1ccc(Cl)cc1Cl
12.1

----------
# assayed_system: MAGE-A11:PCF11 (Homo sapiens (Human))
# method_notes: TR-FRET single point screening at 15 μM
# Format: binding
# Design: unit not given here
# test_settings: single point TR-FRET screening at 15 μM against MAGE-A11:PCF11
Response key: TRUE means TR-FRET signal >= -10; FALSE means TR-FRET signal < -10.

API: above_or_equal(metric=TR-FRET signal, cutoff=-10) for item COc1ccc(CN2CCC(Nc3ccnc4cc(Cl)ccc34)CC2)cc1OC [SJ000523103]
TRUE

Now give it for FC(F)(F)c1cccc(CN(CCCCNc2ccnc3cc(Cl)ccc23)Cc2ccccc2)c1 [SJ000520455] too.
TRUE

COc1ccc2nc3cc(Cl)ccc3c(NCCCNCc3ccsc3)c2c1 [SJ000523026] , same question.
FALSE

Check Fc1ccccc1CN1CCC(Nc2ccnc3cc(Cl)ccc23)CC1 [SJ000523091] too.
TRUE

Now consider Cc1ccc2ncc(S(=O)(=O)c3ccccc3)c(N3CCN(Cc4ccccc4)CC3)c2c1 [SJ000247256] and answer again.
TRUE

Please give the result for Clc1ccc2c(N3CCN(CCCN4CCN(c5ccnc6cc(Cl)ccc56)CC4)CC3)ccnc2c1 [SJ000518980] too.
TRUE

Lookup COc1ccc2nc3cc(Cl)ccc3c(NCCCNCc3ccc4c(c3)OCO4)c2c1 [SJ000361085]
FALSE

Continue with COc1ccc2nc3cc(Cl)ccc3c(NCCCNCc3nccn3C)c2c1 [SJ000521006]
FALSE

Then what about the compound COc1ccc2nc3cc(Cl)ccc3c(NCCCNCCC(C)c3ccccc3)c2c1 (stereo not drawn) [SJ000523027] ?
FALSE

Now try Cc1ccc(S(=O)(=O)c2cnc3ccc(F)cc3c2N2CCN(c3ccc(F)cc3)CC2)cc1 [SJ000117061] .
FALSE

Please answer likewise for CCCN(CCCNc1c2ccc(Cl)cc2nc2ccc(OC)cc12)Cc1ccc(OC)c(OC)c1 [SJ000520957]
FALSE

Record: O=C(CN1CCN(C(=O)c2ccccc2)CC1)Nc1c2c(nc3ccccc13)N(c1cccc(Cl)c1)CC2 [SJ000111683]
FALSE

Proceed to CCCN(CCCNc1c2ccc(Cl)cc2nc2ccc(OC)cc12)Cc1ccc(F)cc1 [SJ000520946]
FALSE

Next record, please: CCCCNCCCNc1c2ccc(Cl)cc2nc2ccc(OC)cc12 [SJ000520995]
FALSE

Check COC(=O)CCCCCN(CCCCNc1ccnc2cc(Cl)ccc12)Cc1ccccc1 [SJ000520432] too.
TRUE

Would you mind doing CCc1ccc(S(=O)(=O)c2cnc3ccccc3c2N2CCN(c3ccc(OC)cc3)CC2)cc1 [SJ000117074] as well?
FALSE

Again, but for CCOC(=O)c1cnc2ccc(OCC)cc2c1N1CCN(C)CC1 [SJ000279526]
TRUE

Proceed to CCOC(=O)c1cnc2c(C)cc(C)cc2c1NCCN(C)C [SJ000037396]
TRUE
